Values from paper PMC7826789

tested on: AAK1; conditions: Compound Concentration (nM):1000;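 also: KINOMEscan scanMAX binding as percent activity remaining versus control; lower means stronger binding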
The entries below come with measured Percent Control values attached.
Use % as the unit, but write only the number.

Before answering, review these 4 worked examples.
# compound, unit-info, val
data = [
    ("Cl.O=C(O[C@H]1CN[C@H](C#Cc2cc3ncnc(Nc4ccc5c(cnn5Cc5ccccc5)c4)c3s2)C1)N1CCOCC1 [GSK200398A]", "%", 87),
    ("Nc1ncnc2occ(-c3ccc(NC(=O)Nc4cc(C(F)(F)F)ccc4F)cc3)c12 [GW770249X]", "%", 96),
    ("CC1=C(C(=O)Nc2ccc3[nH]ncc3c2)C(c2ccc3ccccc3c2)CC(=O)N1 (centres unmarked) [GSK270822A]", "%", 81),
    ("COc1cc(N2CCN(C(C)C)CC2)ccc1Nc1nc(Nc2ccc(F)cc2C(=O)NC[C@@H](O)CO)c2cc[nH]c2n1 [GSK1392956A]", "%", 64),
]

Okay, next one:
Please fill in: Percent Control reported for `CCn1c(-c2nonc2N)nc2c(C#CC(C)(C)O)nc(OCCNC)cc21.Cl` = 100
